# credit: PubChem BioAssay AID248

Tested on: L1210 leukemia ip in BDF1 mice, survival T/C
Assay: NCI In Vivo Anticancer Drug Screen. Data for tumor model L1210 Leukemia (intraperitoneal) in B6D2F1 (BDF1) mice
Details: endpoint: mean survival time; dose: 200.0 mg/kg/injection; schedule: Q04DX002 (ip); vehicle: saline; higher = longer survival
Description: The antitumor activity of compounds was measured in mice bearing transplantable tumors. Survival or tumor size were measured and the results are expressed as the measurement made in the treated group (T) divided by the measurement made in the vehicle treated control group (C). The tumor model used in this assay is L1210 Leukemia (intraperitoneal) in B6D2F1 (BDF1) mice
Toxic doses and inconclusive results are not listed.
quantity-measured: T/C

Examples from the recorded data:
Exercise: L1210 leukemia ip in BDF1 mice, survival T/C / T/C / O=C1C2CCN(CC2)C1Cc1ccccc1 (configuration not stated) : value?
Key: 107 % of control

Exercise: L1210 leukemia ip in BDF1 mice, survival T/C / T/C / COC(=O)C1CCCN1C(=O)C(C)=O (configuration not stated) : value?
Key: 94 % of control

***
Exercise: L1210 leukemia ip in BDF1 mice, survival T/C / T/C / `NCCOc1ccccn1` : value?
Key: 101 % of control

Exercise: L1210 leukemia ip in BDF1 mice, survival T/C / T/C / C=C1c2ccccc2N(C)C1(COc1ccc(Cl)cc1)OC(=O)c1cccc(Cl)c1 (configuration not stated) : value?
Key: 98 % of control

Exercise: L1210 leukemia ip in BDF1 mice, survival T/C / T/C / CCCCC#CC(=O)OC(C)CC (configuration not stated) : value?
Key: 92 % of control

Exercise: L1210 leukemia ip in BDF1 mice, survival T/C / T/C / `CC(C)OP(=O)(CCCCCCCCCCP(=O)(OC(C)C)OC(C)C)OC(C)C` : value?
Key: 102 % of control

Exercise: L1210 leukemia ip in BDF1 mice, survival T/C / T/C / CN(C)CCCN1CCC2(CC1)C(C#N)C(=O)NC(=O)C2C#N (configuration not stated) : value?
Key: 100 % of control
